Target: ADAM8 (Homo sapiens, UniProt P78325)
Construct: FLAG (C); made in house; host or cells: Sf9 insect cells (baculovirus, pFastBac1)
Sequence (P78325 200-400 limits assumed): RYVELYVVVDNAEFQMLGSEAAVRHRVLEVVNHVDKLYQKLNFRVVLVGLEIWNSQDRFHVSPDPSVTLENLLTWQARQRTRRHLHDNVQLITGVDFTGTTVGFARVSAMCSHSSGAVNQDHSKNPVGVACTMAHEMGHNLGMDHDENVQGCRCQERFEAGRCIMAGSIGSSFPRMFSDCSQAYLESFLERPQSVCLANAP
Experiment: Kinetic analysis of the affinity of ADAM8 for cleavage of 4 peptides
Format: biochemical
Settings: ADAM8, 30 minutes at room temperature, by inspection of the fitted curves
Exercise: state measured K0.5 (substrate concentration at which the enzyme activity was 50% of the Vmax) for each of the substances provided.
Report field: quantity (unit follows the number).

Study these solved cases before continuing.
X-RFAQAQQQLP-Z ({Edans‑E}-RFAQAQQQLP-{dabcyl‑K}) [CD27L, FRET peptide substrate; X = Edans-E; Z = dabcyl-K] ... 5 µM
X-KPAAFFRL-Z ({Edans‑E}-KPAAFFRL-{dabcyl‑K}) [CatE, FRET peptide substrate; X = Edans-E; Z = dabcyl-K] ... 5 µM
X-KPAKFFRL-Z ({Edans‑E}-KPAKFFRL-{dabcyl‑K}) [CatEl, FRET peptide substrate; X = Edans-E; Z = dabcyl-K] ... 2.5 µM

// query Query K0.5 (substrate concentration at which the enzyme activity was 50% of the Vmax) on ADAM8 (Homo sapiens, UniProt P78325) for X-PLAQAVRSSS-Z ({Edans‑E}-PLAQAVRSSS-{dabcyl‑K}) [TNFα, FRET peptide substrate; X = Edans-E; Z = dabcyl-K]
// result 5 µM

---

Target: ADAM8 (Homo sapiens)
Construct: FLAG (C); made in house; host or cells: Sf9 insect cells (baculovirus, pFastBac1)
Sequence (P78325 200-400 limits assumed): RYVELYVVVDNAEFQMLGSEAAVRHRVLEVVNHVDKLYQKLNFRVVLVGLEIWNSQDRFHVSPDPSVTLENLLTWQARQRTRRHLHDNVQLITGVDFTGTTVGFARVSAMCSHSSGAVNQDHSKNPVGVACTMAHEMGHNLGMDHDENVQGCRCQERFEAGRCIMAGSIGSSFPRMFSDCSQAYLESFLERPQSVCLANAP
Assay: FRET peptide substrate screening, ADAM8
Assay type: biochemical
Parameters: key: from one star (*) to five stars (*****) to indicate weaker to more potent substrates respectively; from one star (*) to five stars (*****) to indicate weaker to more potent substrates respectively; from one star (*) to five stars (*****) to indicate weaker to more potent substrates respectively; from one star (*) to five stars (*****) to indicate weaker to more potent substrates respectively; (—) = no detectable activity
Conditions: FRET peptide 20 uM, room temperature
PROPERTY NAME: Relative proteolytic activity ADAM8

Study these solved cases before continuing.
Z-LAQAVRSSSR-X ({dabcyl‑K}-LAQAVRSSSR-{Edans‑E}) [TNFα(−4 + 6), FRET peptide substrate; X = Edans-E; Z = dabcyl-K] ... *
X-PLAQAVRSSS-Z ({Edans‑E}-PLAQAVRSSS-{dabcyl‑K}) [TNFα, FRET peptide substrate; X = Edans-E; Z = dabcyl-K] ... ***
X-KPAKFFRL-Z ({Edans‑E}-KPAKFFRL-{dabcyl‑K}) [CatEl, FRET peptide substrate; X = Edans-E; Z = dabcyl-K] ... *****
X-RTAAVFRP-Z ({Edans‑E}-RTAAVFRP-{dabcyl‑K}) [AD8P, FRET peptide substrate; X = Edans-E; Z = dabcyl-K] ... *

// query Need Relative proteolytic activity ADAM8, item X-PSAAQTARQHP-Z ({Edans‑E}-PSAAQTARQHP-{dabcyl‑K}) [TNFB2, FRET peptide substrate; X = Edans-E; Z = dabcyl-K]
// result ***

Hey, just so you know, these numbers are from patent US6458552B1.
